Target: human Y5 receptor (Homo sapiens)
Construct: expressed in transfected cells; host or cells: mouse fibroblast LM(tk-) cells, e.g. L-hY5-7 (ATCC CRL-11995)
Sequence (Q15761 whole entry): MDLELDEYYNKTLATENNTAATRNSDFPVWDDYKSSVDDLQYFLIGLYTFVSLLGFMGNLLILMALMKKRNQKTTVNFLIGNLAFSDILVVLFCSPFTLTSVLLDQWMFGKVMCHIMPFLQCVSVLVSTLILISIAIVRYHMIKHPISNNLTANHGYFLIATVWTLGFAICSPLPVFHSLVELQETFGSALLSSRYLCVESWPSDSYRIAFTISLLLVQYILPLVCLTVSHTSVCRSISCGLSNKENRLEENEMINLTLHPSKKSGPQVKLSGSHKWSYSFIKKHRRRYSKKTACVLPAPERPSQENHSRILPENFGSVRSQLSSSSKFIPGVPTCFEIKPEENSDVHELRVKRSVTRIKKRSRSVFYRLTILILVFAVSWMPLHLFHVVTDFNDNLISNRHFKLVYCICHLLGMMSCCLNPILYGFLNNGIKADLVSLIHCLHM
Assay: Radioligand binding to membranes, cloned human Y5 receptor
Conditions: Table 3; read-out: Ki (nM) hNPY-5
measurement.kind: Ki (nM)

compound | display.unit | Ki
CC(C)Nc1nc(NCC2CCC(CNS(=O)(=O)N(C)C)CC2)nc(NC2CC2)n1 (stereo not shown) [Example 48] | nM | 192
O=S(=O)(NCC1CCC(CNc2nc(NC3CC3)nc(-c3ccccn3)n2)CC1)c1ccc(F)cc1 (stereo not shown) [Example 55] | nM | 209

P: CN(C)S(=O)(=O)NCC1CCC(CNc2nc(Cl)nc(Cl)n2)CC1 (stereo not shown) [Example 53]
Q: CC(C)Nc1nc(Cl)nc(NCC2CCC(CNS(=O)(=O)c3ccc(C(C)(C)C)cc3)CC2)n1 (stereo not shown) [Example 51]
Query string: Lab log: flag the item ( P or Q ) with the smaller Ki figure. Label of pick, please.
Result string: Q
